The measured values listed here are drawn from patent US20250340659A1.

Reported values of pKd for individual entries
Biological target: T1, recombinant canine OX40L ECD-TNCc-HIS protein (canine)
T1 construct: also called Trimeric OX40L probe (HIS tag); trimeric canine OX40L
T1 chain: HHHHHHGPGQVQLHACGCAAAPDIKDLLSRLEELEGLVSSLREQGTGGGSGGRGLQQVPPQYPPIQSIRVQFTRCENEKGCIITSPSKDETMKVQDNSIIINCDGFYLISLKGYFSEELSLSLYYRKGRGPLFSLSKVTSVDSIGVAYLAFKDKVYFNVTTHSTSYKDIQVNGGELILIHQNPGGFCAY
Assay: SPR KD1, bivalent analyte model
pKd: −log10 of the molar value.
property measured: pKd

>>> measured_number("PMX050 (antibody, V domains shown, also called PMX50) VH: EVQLVESGGDLVKPEGSLRLSCVVSGFTFTTYDMSWVRQAPGKGLQWVAYITNDGRITTYTDAVKGRFTISRDNAKNTLYLQMNSLRTVDTGVYYCARHSSSWSRGRFGLDYWGHGTSVFVSS VL: SYVLTQLPSKNVTLKQPAHITCGGDNIGRKGVHWYQQKLGQAPVLIIYYDSSRPTGIPERFSGANSGNTATLTISGALAEDEADYYCQVWDNSASVFGGGTHLTVL")
8.88
>>> measured_number("PMX032 (antibody, V domains shown, also called PMX32) VH: EVQLVESGGDLVKPGGSLRLSCVASGFTFSSYHMSWVRQAPGKGLQWVAYITSGGRTTSYADAVKGRFIISRDNAKNTLYLQMNSLRAEDTAVYYCASDLVLILGGADYWGQGTLVTVSS VL: SYELTQPPSVNVTLRETAHITCGGDSIGRKYVQWIQQNPGQAPVVIIYKDNNRPTGIPERFSGANSGNTATLTISGALAEDEADYYCQVGDSGSKAVFGGGTHLTVL")
8.14
>>> measured_number("PMX104 (antibody, V domains shown) VH: EVQLVESGGDLVRPGGSLRLSCVASGFTFSNYHMSWVRQAPGKGLQWVAFINSGGTSTTYADAVRGRFTTSRDYAKNTLYLQMNSLRAEDTAVYYCTSGSIWTHFDYWGQGTLVTVSS VL: SFVLTQLPSVSVTLRQTARITCGGDIIGSKSVYWFQQKLGQAPILIIYRDDNRPTGIPERFSGASSGNTATLIISGALAEDEAHYYCQVWDSSSKAMFGGGTHLTVL")
7.75
